# Run Description: Acute 7-day toxicity in mice after a single p.o. dose
# Set-up: species or system Maus
# Applied Conditions: in vivo, po, mouse (male NMRI), 50 % mortality on day 7, probit analysis, read-out: Toxizität LD50
The reader will find reported LD50 at 168 h values listed item by item below.

{"Compound": "CCC1C2CC3C4N(C)c5c(Br)cc(Br)cc5C45CC(C2C5O)[N+]3(CCN2CCOCC2)C1O (stereo not drawn) [Beispiel 62]", "LD50 at 168 h [µmol/kg]": 379}
{"Compound": "CCC1C2CC3C4N(C)c5c(Br)cc(Br)cc5C45CC(C2C5O)[N+]3(CCC(C)C)C1O (stereo not drawn) [Beispiel 2]", "LD50 at 168 h [µmol/kg]": 277}
{"Compound": "CCC1C2CC3C4N(C)c5c(Br)cc(Br)cc5C45CC(C2C5O)[N+]3(C)C1O (stereo not drawn) [Beispiel 12]", "LD50 at 168 h [µmol/kg]": 2400}
